Data provenance: FireProtDB (doi:10.1110/ps.03176803)

B1: Guanyl-specific ribonuclease Sa, P05798 (parent)
chain: DVSGTVCLSALPPEATDTLNLIASDGPFPYSQDGVVFQNRESVLPTQSYGYYHEYTVITPGARTRGTRRIITGEATQEDYYTGDHYATFSLIDQTC

Variants of: B1
condition-description: Kitasatospora aureofaciens; pH 5.5; 55.6 °C; Thermal; DSC; sodium acetate potassium chloride 0.01 M 0.05 M; reversible: yes (90-95%); structure 1RGG; whole UniProt chain shown
# ddG of mutation (higher = less stable) listing for each entry below

Below are worked cases with known answers.
>>> print(df.to_string())
                             chain_sequence         result
0  DVSGTVCLSALPPEATDTLNLIASDGPFPYSQDGVVFQNRKSVLPTQSYGYYHEYTVITPGARTRGTRRIITGEATQEDYYTGDHYATFSLIDQTC   1.5 kcal/mol
1  DVSGTVCLSALPPEATDTLNLIASDGPFPYSQDGVVFQNRESVLPTQSYGYYHEYTVITPGARTRGTRRIITGKATQEDYYTGDHYATFSLIDQTC  -0.1 kcal/mol
2  DVSGTVCLSALPPEATDTLNLIASDGPFPYSQDGVVFQNRESVLPTQSYGYYHQYTVITPGARTRGTRRIITGEATQEDYYTGDHYATFSLIDQTC   2.3 kcal/mol

Asked: I'd like to know its ddG of mutation (higher = less stable). The variant in question is "DVSGTVCLSALPPEATDTLNLIASDGPFPYSQDGVVFANRESVLPTQSYGYYHEYTVITPGARTRGTRRIITGEATQEDYYTGDHYATFSLIDQTC"
Given back: -0.4 kcal/mol

Asked: I'd like to know its ddG of mutation (higher = less stable). The variant in question is "DVSGTVCLSALPPEATDTLNLIASDGPFPYSQDGVVFQNRESVLPTQSYGYYHEYTVITPGARTRGTRRIITGEATQEDYYTGDQYATFSLIDQTC"
Given back: 0 kcal/mol

Asked: I'd like to know its ddG of mutation (higher = less stable). The variant in question is "DVSGTVCLSALPPEATDTLNLIASDGPFPYSQDGVVFQNRESVLPTQSYGYYHEYTVITPGARTAGTRRIITGEATQEDYYTGDHYATFSLIDQTC"
Given back: 1.3 kcal/mol
